System: SK-MEL-2 melanoma
procedure_summary: NCI-60 one-dose screen, 48 h (100 = growth as untreated, 0 = no growth, -100 = all killed)
measurement_parameters: 10 µM unless noted
About 83,000 compounds went through this panel and 20% of them were active in at least one assay; those are over-represented in the sample as a whole.
The following molecules are shown together with reported growth values.
readout_label: growth (%)

molecule=Cc1ccc(OCCn2c(C)nn(-c3ccc(Cl)cc3)c2=O)cc1 experimental_result=146
molecule=O=C(N/N=C/c1c(Cl)cccc1Cl)c1ccccc1Nc1ccnc(C(F)(F)F)c1 experimental_result=69.6
molecule=C=C1C(=O)O[C@H]2[C@H]1CC/C(COC(=O)NCc1cc(OC)cc(OC)c1)=C\CC[C@@]1(C)O[C@@H]21 experimental_result=23.2
molecule=O=C(/C=C/c1ccccc1)n1c(-c2ccc(Cl)cc2)nc2ccccc21 experimental_result=-36
molecule=CCSc1nnc(NC(=O)COc2ccc(Cl)cc2C)s1 experimental_result=48.6
molecule=Cc1cc(Nc2nc(C(=O)Nc3ccccc3)nc3ccccc23)n[nH]1 experimental_result=45.3
molecule="COc1cccc(C2CC(=O)Nc3c2c(C)nn3-c2nc3ccccc3[nH]2)c1OC (stereo unspecified)" experimental_result=72.7
molecule=CN1C(=O)[C@H]2c3c1cccc3[C@@]13NC(=O)O[C@H]1[C@H](CCC3(C)C)C2(C)C experimental_result=92.8
molecule=CCN(CC)CCCNc1nc(C)cc(Nc2ccc3nc(C)cc(N)c3c2)n1 experimental_result=36.1
molecule=C=C1C(=O)O[C@H]2[C@H](O)[C@@H](C)CCC/C(C)=C/CC[C@@]3(C)O[C@@H]3C[C@@H]12 experimental_result=90.4
molecule=CN(C)C/C=C/C(=O)Nc1cc2c(Nc3cccc(Cl)c3F)ncnc2cc1OCCOC(F)F experimental_result=70.1
molecule=COc1ccc(/C=C2\C(=O)N(C(=O)c3csc(NC(C)=O)n3)N=C2C)cc1 experimental_result=94.8
molecule="Cc1ccc(C2=NN(c3ccc(S(=O)(=O)NC(=O)NCc4ccccc4)cc3)C(c3ccc(N(C)C)cc3)C2)c(C)c1 (stereo unspecified)" experimental_result=40.9
molecule="Cc1ccc2c(c1)C(C)Cc1c(N(C)C)ncnc1N2C (stereo unspecified)" experimental_result=30
molecule=CC(=O)Oc1cccc(OC(C)=O)c1OC(C)=O experimental_result=103
molecule="CC1(C)OC2COC3(C(=O)O)OC(C)(C)OC3C2O1 (stereo unspecified)" experimental_result=93.1
molecule=O=C(O)c1cn(C2CC2)c2cc(N3CCN(S(=O)(=O)c4ccc(Cl)c(Cl)c4)CC3)c(F)cc2c1=O experimental_result=-9.56
molecule=COc1cc(CCn2nnc3c(Nc4ccc(N5CCOCC5)cc4)ncnc32)cc(OC)c1 experimental_result=115
molecule=CC1=CNNc2c3ncnc-3ncn21 experimental_result=111
molecule=O=C(O)c1ccc(-n2cc(CNc3ccc(C(F)(F)F)cc3)c(-c3ccccc3)n2)cc1 experimental_result=93.8
molecule=O=C(CNc1c(Cl)cccc1Cl)Nc1ccc(-c2nc3ccccc3s2)cc1 experimental_result=84.8
